Values compiled from patent US20220073532A1.

Parameter IC50: see the listing below.
biological target: cGAS (Homo sapiens, UniProt Q8N884); assay: cGAS enzymatic assay (FP/TR-FRET detection of cGAMP); assay type: biochemical; design: The cGAS assay was used to screen 100,000 compounds with full-length human cGAS; 6xHis; made in house; details: cGAS (30 nM), with Mn^2+; read-out: Inhibition cGAS + Mn^2+
Sequence (Q8N884 whole entry): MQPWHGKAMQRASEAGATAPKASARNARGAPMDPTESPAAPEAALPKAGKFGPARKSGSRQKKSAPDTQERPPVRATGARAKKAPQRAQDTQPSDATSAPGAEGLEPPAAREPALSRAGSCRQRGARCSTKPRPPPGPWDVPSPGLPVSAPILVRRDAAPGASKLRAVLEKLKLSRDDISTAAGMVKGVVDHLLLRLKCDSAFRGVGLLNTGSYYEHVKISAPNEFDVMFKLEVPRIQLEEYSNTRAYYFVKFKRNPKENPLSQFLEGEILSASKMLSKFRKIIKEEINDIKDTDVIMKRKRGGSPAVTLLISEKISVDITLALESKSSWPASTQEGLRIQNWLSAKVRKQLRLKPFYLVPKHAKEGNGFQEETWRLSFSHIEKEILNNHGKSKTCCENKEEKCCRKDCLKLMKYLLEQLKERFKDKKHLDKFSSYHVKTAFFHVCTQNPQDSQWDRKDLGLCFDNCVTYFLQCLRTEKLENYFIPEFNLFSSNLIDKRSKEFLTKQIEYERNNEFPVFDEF

Q: Quote IC50 reported for `O=C(O)[C@@H]1CCCN1c1nc(-c2ccccc2)nc2c1oc1ccccc12` please.
Result: > 10 µM

Q: Quote IC50 reported for `O=C(O)CNc1nc(-c2ccccc2)nc2c1oc1ccccc12` please.
Result: > 10 µM

Q: Quote IC50 reported for `Cc1nc(N2C[C@@H](CC(=O)NC3CCCC3)C[C@H]2C(=O)O)c2oc3ccccc3c2n1` please.
Result: 1 to 10 µM

Q: Quote IC50 reported for `CCc1nc(N(C)CC(=O)O)c2oc3ccccc3c2n1` please.
Result: 1 to 10 µM

Q: Quote IC50 reported for `CC(C)c1nc(N2CCC[C@H]2C(=O)O)c2oc3ccccc3c2n1` please.
Result: > 10 µM

Q: Quote IC50 reported for `Cc1nc(N2C[C@@H](Cc3nnn[nH]3)C[C@H]2CO)c2oc3ccccc3c2n1` please.
Result: 1 to 10 µM

Q: Quote IC50 reported for `Cc1cc(CC(=O)N[C@H]2C[C@@H](C(=O)O)N(c3nc(C)nc4c3oc3ccccc34)C2)ccn1` please.
Result: > 10 µM

Q: Quote IC50 reported for `Cc1nc(N2C[C@@H](NC(=O)C3(c4ccncc4)CC3)C[C@H]2C(=O)O)c2oc3ccccc3c2n1` please.
Result: 1 to 10 µM

Q: Quote IC50 reported for `N#Cc1nc(N2CCC[C@H]2C(=O)O)c2oc3ccccc3c2n1` please.
Result: 1 to 10 µM
